# Test system: Solenopsis invicta
# PROTOCOL_SUMMARY: whole plant or invertebrate
# Assay type: in vivo
# DETAILS: 100 ppm; 24 h; water test tube poison-feeding
For each record, write down the corresponding Solenopsis invicta Mortality (%) 24 h.
Dear colleague, please return just the value in %, with no unit written.

Entry CCOC(=O)C1(CC(=O)OC(C(F)(F)F)C(F)(F)F)Nc2c([S+]([O-])C(F)(F)F)c(C#N)nn2-c2c(Cl)cc(C(F)(F)F)cc21 (stereo not drawn) ; assay system Solenopsis invicta; Solenopsis invicta Mortality (%) 24 h recorded at 31

Observed Solenopsis invicta Mortality (%) 24 h, Solenopsis invicta, COC(=O)CC1(C(=O)OC)Nc2c(C#N)c(C(F)(F)F)nn2-c2cc(C(F)(F)F)cc(Cl)c21 (stereo not drawn) : 29

Reading of Solenopsis invicta Mortality (%) 24 h for COC(=O)CC1(C(=O)OC)Nc2c([S+]([O-])C(F)(F)F)c(C#N)nn2-c2c(C(F)(F)F)ccc(Cl)c21 (stereo not drawn) with Solenopsis invicta: 33

The recorded Solenopsis invicta Mortality (%) 24 h with Solenopsis invicta for N#Cc1nn2c(c1[S+]([O-])C(F)(F)F)NC(Cl)c1c(Cl)cncc1-2 (stereo not drawn) was 14

Solenopsis invicta Mortality (%) 24 h value, target or system Solenopsis invicta, for N#Cc1nn2c(c1[S+]([O-])C(F)(F)F)NC(Cc1ccccc1)(C(=O)C(F)(F)F)c1c(Cl)cncc1-2 (stereo not drawn) : 19

Bench note, Solenopsis invicta: entry CC(C)C1Nc2c(OC(F)(F)F)c(C#N)nn2-c2c(Cl)cc(C(F)(F)F)cc21 (stereo not drawn) , its Solenopsis invicta Mortality (%) 24 h = 11

For the compound COC(=O)CC1(C(=O)C(F)(F)F)Nc2c([S+]([O-])C(F)(F)F)c(C#N)nn2-c2cncc(Cl)c21 (stereo not drawn) , the measured Solenopsis invicta Mortality (%) 24 h on Solenopsis invicta was 16

Param item: CC=CC1Nc2c([S+]([O-])C(F)(F)F)c(C#N)nn2-c2cncc(Cl)c21 (stereo not drawn) ; param system: Solenopsis invicta; output Solenopsis invicta Mortality (%) 24 h: 20

Response field Solenopsis invicta Mortality (%) 24 h (Solenopsis invicta) for item CCOC(=O)C1(CC(=O)OC)Nc2c([S+]([O-])C(F)(F)F)c(C#N)nn2-c2cncc(Cl)c21 (stereo not drawn) : 10

Result for COC(=O)C1(CC(F)(F)F)Nc2c([S+]([O-])C(F)(F)F)c(C#N)nn2-c2c(Cl)cc(C(F)(F)F)cc21 (stereo not drawn) , tested on Solenopsis invicta, Solenopsis invicta Mortality (%) 24 h: 30

Hey, Solenopsis invicta data for COC(=O)CC1(C(=O)OC)Nc2c(OC(F)(F)F)c(C#N)nn2-c2c(Cl)cc(C(F)(F)F)cc21 (stereo not drawn) : Solenopsis invicta Mortality (%) 24 h came out at 21

Summary: CC(=O)C1(CC(=O)C(F)(F)F)Nc2c([S+]([O-])C(F)(F)F)c(C#N)nn2-c2cc(C(F)(F)F)cc(Cl)c21 (stereo not drawn) , Solenopsis invicta, Solenopsis invicta Mortality (%) 24 h = 35

The compound COC(=O)C1Nc2c([S+]([O-])C(F)(F)F)c(C(F)(F)F)nn2-c2cncc(Cl)c21 (stereo not drawn) , tested on Solenopsis invicta, showed Solenopsis invicta Mortality (%) 24 h of 14

// compound COC(=O)C(C)C1Nc2c(OC(F)(F)F)c(C#N)nn2-c2c(Cl)cc(C(F)(F)F)cc21 (stereo not drawn) , assay Solenopsis invicta, Solenopsis invicta Mortality (%) 24 h value: 24

Item N#Cc1nn2c(c1[S+]([O-])C(F)(F)F)NC(Cc1ccccc1)(C(=O)C(F)(F)F)c1c(Cl)cc(C(F)(F)F)cc1-2 (stereo not drawn) ; assay system Solenopsis invicta; Solenopsis invicta Mortality (%) 24 h reported as 21

Value source: patent US11401271B2
